target: UniProt Q9NYK1; assay: Human TLR7 reporter gene inhibitory activity assay (NF-κB/SEAP HEK293); type: cell-based; design: host or cells: HEK293 (TLR7/NF-κB/SEAPorter); conditions: compound 30 nM (as headed); R848 200 nM
Reported human TLR7 activity, reporter signal by item:

>  <Compound>
CCCCOc1nc(N)c2nc(-c3cccnc3)n(Cc3ccccc3)c2n1

>  <human TLR7 activity, reporter signal>
0.6856

$$$$
>  <Compound>
CCOc1nc(N)c2nc(-c3cncc(F)c3)n(Cc3ccc(CN4C[C@@H]5C[C@H]4CN5C)cc3)c2n1

>  <human TLR7 activity, reporter signal>
-0.03198

$$$$
>  <Compound>
CCN(CCO)CCCC(C)Nc1ccnc2cc(Cl)ccc12 (stereo not shown) [HCQ, hydroxychloroquine, reference compound]

>  <human TLR7 activity, reporter signal>
0.2449

$$$$
>  <Compound>
CCOc1nc(C)c2nc(-c3cncc(F)c3)n(Cc3ccc(CN4C[C@@H]5C[C@H]4CN5C)cc3)c2n1

>  <human TLR7 activity, reporter signal>
-0.03703

$$$$

----------
Reported human TLR7 activity, reporter signal by item:
molecular target: TLR7 (Homo sapiens, UniProt Q9NYK1); experiment: Human TLR7 reporter gene inhibitory activity assay (NF-κB/SEAP HEK293); type: cell-based; set-up: host or cells: HEK293 (TLR7/NF-κB/SEAPorter); details: compound 0.0001 nM (as headed); R848 200 nM

>  <Molecule>
CCOc1nc(N)c2nc(-c3cncc(F)c3)n(Cc3ccc(CN4C[C@@H]5C[C@H]4CN5C)cc3)c2n1

>  <human TLR7 activity, reporter signal>
1.983

$$$$
>  <Molecule>
CCN(CCO)CCCC(C)Nc1ccnc2cc(Cl)ccc12 (stereo not shown) [HCQ, hydroxychloroquine, reference compound]

>  <human TLR7 activity, reporter signal>
1.977

$$$$
>  <Molecule>
CCOc1nc(C)c2nc(-c3cncc(F)c3)n(Cc3ccc(CN4C[C@@H]5C[C@H]4CN5C)cc3)c2n1

>  <human TLR7 activity, reporter signal>
1.983

$$$$
>  <Molecule>
CCCCOc1nc(N)c2nc(-c3cccnc3)n(Cc3ccccc3)c2n1

>  <human TLR7 activity, reporter signal>
2.067

$$$$

----------
Molecular target: TLR7 (Homo sapiens, UniProt Q9NYK1)
Sequence (Q9NYK1 27-1049): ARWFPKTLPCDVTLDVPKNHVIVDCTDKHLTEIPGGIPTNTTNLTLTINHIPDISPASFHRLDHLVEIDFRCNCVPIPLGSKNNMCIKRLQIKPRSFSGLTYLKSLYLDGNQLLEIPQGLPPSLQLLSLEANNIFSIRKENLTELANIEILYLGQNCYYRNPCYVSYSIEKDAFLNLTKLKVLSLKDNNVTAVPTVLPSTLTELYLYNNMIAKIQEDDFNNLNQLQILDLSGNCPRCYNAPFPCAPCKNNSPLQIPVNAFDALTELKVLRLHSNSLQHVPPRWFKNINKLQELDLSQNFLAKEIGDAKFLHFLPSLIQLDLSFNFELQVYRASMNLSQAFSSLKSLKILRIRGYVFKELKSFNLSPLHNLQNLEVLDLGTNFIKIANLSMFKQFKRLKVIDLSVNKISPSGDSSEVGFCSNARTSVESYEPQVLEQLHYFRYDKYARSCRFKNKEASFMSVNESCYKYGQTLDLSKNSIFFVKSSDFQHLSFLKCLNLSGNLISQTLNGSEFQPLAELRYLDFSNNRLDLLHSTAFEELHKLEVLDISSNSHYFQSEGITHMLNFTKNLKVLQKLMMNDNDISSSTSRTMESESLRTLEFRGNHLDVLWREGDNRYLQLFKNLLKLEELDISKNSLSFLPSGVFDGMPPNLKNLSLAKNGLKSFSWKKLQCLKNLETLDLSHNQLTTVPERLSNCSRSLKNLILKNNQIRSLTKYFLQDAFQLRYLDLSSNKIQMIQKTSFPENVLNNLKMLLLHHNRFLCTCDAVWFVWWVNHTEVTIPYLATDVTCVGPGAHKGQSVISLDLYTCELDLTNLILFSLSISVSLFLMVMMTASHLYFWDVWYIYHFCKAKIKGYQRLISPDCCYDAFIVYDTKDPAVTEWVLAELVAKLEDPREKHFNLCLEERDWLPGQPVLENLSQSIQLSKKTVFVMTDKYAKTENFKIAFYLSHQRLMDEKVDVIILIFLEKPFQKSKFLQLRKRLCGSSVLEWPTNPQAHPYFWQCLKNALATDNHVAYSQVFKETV
Assay: Human TLR7 reporter gene inhibitory activity assay (NF-κB/SEAP HEK293)
Assay type: cell-based
Parameters: host or cells: HEK293 (TLR7/NF-κB/SEAPorter)
Conditions: R848 200 nM; read-out: TLR7 inhibitory potency IC50
pIC50: −log10 of the molar value.

>  <Compound>
CCCCOc1nc(N)c2nc(-c3cccnc3)n(Cc3ccccc3)c2n1 [Cpd-5]

>  <pIC50>
5.30

$$$$

Where do the numbers come from? From paper PMC7562955.
